The reported measurements were obtained from paper PMC8728441.

Molecular target: MftR S67A (Mycolicibacterium smegmatis, UniProt A0QSB5, S67A)
Experiment: ITC binding of oleoyl-CoA to MftR variant
PROPERTY_LABEL: pKd
pKd field: float, defined as -log10 of concentration (mol/L).

For the molecule CCCCCCCC/C=C\CCCCCCCC(=O)SCCNC(=O)CCNC(=O)[C@H](O)C(C)(C)COP(=O)(O)OP(=O)(O)OC[C@H]1O[C@@H](n2cnc3c(N)ncnc32)[C@H](O)[C@@H]1OP(=O)(O)O , what pKd is on record? 5.27

----------
Molecular target: MftR D16W (Mycolicibacterium smegmatis, UniProt A0QSB5, D16W)
Assay: ITC binding of oleoyl-CoA to MftR variant
PROPERTY_LABEL: Kd

Enter reported Kd observed with MftR D16W (Mycolicibacterium smegmatis, UniProt A0QSB5, D16W) for CCCCCCCC/C=C\CCCCCCCC(=O)SCCNC(=O)CCNC(=O)[C@H](O)C(C)(C)COP(=O)(O)OP(=O)(O)OC[C@H]1O[C@@H](n2cnc3c(N)ncnc32)[C@H](O)[C@@H]1OP(=O)(O)O [oleoyl-CoA] 4.8 µM

----------
Target: MftR F65A (Mycolicibacterium smegmatis, UniProt A0QSB5, F65A)
Sequence (A0QSB5 1-200 F65A): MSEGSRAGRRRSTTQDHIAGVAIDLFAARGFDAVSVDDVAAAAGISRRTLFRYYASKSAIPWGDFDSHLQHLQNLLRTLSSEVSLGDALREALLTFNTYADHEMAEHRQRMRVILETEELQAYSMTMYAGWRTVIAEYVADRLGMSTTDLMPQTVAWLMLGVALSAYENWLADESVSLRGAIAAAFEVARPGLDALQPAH
Assay: ITC binding of oleoyl-CoA to MftR variant
PROPERTY_LABEL: Kd
Write your answer as a measured quantity: the number, then the unit.

For the compound CCCCCCCC/C=C\CCCCCCCC(=O)SCCNC(=O)CCNC(=O)[C@H](O)C(C)(C)COP(=O)(O)OP(=O)(O)OC[C@H]1O[C@@H](n2cnc3c(N)ncnc32)[C@H](O)[C@@H]1OP(=O)(O)O [oleoyl-CoA] , what Kd is on record? 1900 nM

----------
Biological target: MftR D66A (Mycolicibacterium smegmatis, UniProt A0QSB5, D66A)
Test: ITC binding of oleoyl-CoA to MftR variant
Parameters: species or system Mycobacterium smegmatis mc^2155
PROPERTY_LABEL: pKd
pKd field: float, defined as -log10 of concentration (mol/L).

For the compound CCCCCCCC/C=C\CCCCCCCC(=O)SCCNC(=O)CCNC(=O)[C@H](O)C(C)(C)COP(=O)(O)OP(=O)(O)OC[C@H]1O[C@@H](n2cnc3c(N)ncnc32)[C@H](O)[C@@H]1OP(=O)(O)O , what pKd is on record? 5.80

----------
Target: MftR M127A (Mycolicibacterium smegmatis, UniProt A0QSB5, M127A)
Experiment: ITC binding of oleoyl-CoA to MftR variant
PROPERTY_LABEL: Kd (µM)
Dear colleague, please return just the value in µM, with no unit written.

For the molecule CCCCCCCC/C=C\CCCCCCCC(=O)SCCNC(=O)CCNC(=O)[C@H](O)C(C)(C)COP(=O)(O)OP(=O)(O)OC[C@H]1O[C@@H](n2cnc3c(N)ncnc32)[C@H](O)[C@@H]1OP(=O)(O)O [oleoyl-CoA] , what Kd is on record? 4.8
